Answer each item with its documented inhibition of SARS-CoV-2 cytopathic effect.
Test system: Vero E6 infected with SARS-CoV-2
Experiment summary: inhibition of SARS-CoV-2 cytopathic effect; higher = more antiviral protection, active = above 15
Study conditions: 8.33 nM; 48 h
One number for each entry, in %.

Worked examples, 4 compounds total:
>>> measured_number("CCOc1ccc(Cc2cc([C@@H]3O[C@H](SC)[C@@H](O)[C@H](O)[C@H]3O)ccc2Cl)cc1")
-2.52
>>> measured_number("O=C1c2cccc(O)c2C(=O)c2c(O)cccc21")
-3.39
>>> measured_number("CN[C@H]1C(=O)N[C@@H]2Cc3ccc(cc3)Oc3cc4cc(c3O[C@@H]3O[C@H](C(=O)O)[C@@H](O)[C@H](O)[C@H]3NC(=O)CCCCCCCCC(C)C)Oc3ccc(cc3Cl)[C@@H](O)[C@@H]3NC(=O)[C@H](NC(=O)[C@@H]4NC(=O)[C@@H](NC2=O)c2cc(cc(O)c2Cl)Oc2cc1ccc2O)c1ccc(O)c(c1)-c1c(O[C@H]2O[C@H](CO)[C@@H](O)[C@H](O)[C@@H]2O)cc(O)cc1[C@@H](C(=O)NCCCN(C)C)NC3=O")
-0.74
>>> measured_number("CO/N=C(\\C(=O)N[C@@H]1C(=O)N2C(C(=O)O)=C(CSc3nc(=O)c(O)nn3C)CS[C@H]12)c1csc(N)n1")
-0.8

Here are 2 compounds. What values of inhibition of SARS-CoV-2 cytopathic effect were reported for them?
1. Nc1ccc2ncnc(NCCc3ccc(Oc4ccccc4)cc3)c2c1
2. CC(=O)[C@@]1(O)CC[C@H]2[C@@H]3C=C(Cl)C4=CC(=O)[C@@H]5C[C@@H]5[C@]4(C)[C@H]3CC[C@@]21C

OUTPUT:
1: 1.54; 2: -5.77
